# maps each entry to its log10 of IC50
Test system: pERK in HCT116 cells
Assay: Inhibition of KRas phosphorylation of ERK (Cisbio HTRF pERK assay)
Conditions: Homo sapiens, HCT-116, read-out: Inhibition (HTRF IC50) of KRas-mediated Phosphorylation of ERK, HCT116
Endpoint: log10 of IC50 (log10 of the value in nM)

{"columns": ["Compound", "log10 of IC50"],
 "data": [
  ["CCc1c(F)ccc2cc(O)cc(-c3ncc4c(N5CC6CC(O)CC5C6)nc(OC[C@@]56CCCN5C[C@H](F)C6)nc4c3F)c12 (stereo partly drawn) [Example 58]", 2.25],
  ["O=S1(=O)NC[C@]2(CCCN(c3nc(OC[C@@]45CCCN4C[C@H](F)C5)nc4c(F)c(-c5cc(O)cc6ccc(F)c(Cl)c56)ncc34)C2)N1 [Example 515]", 1.38],
  ["CCc1c(F)ccc2cc(O)cc(-c3ncc4c(N5CCOCC(O)C5)nc(OC[C@@]56CCCN5C[C@H](F)C6)nc4c3F)c12 (stereo partly drawn) [Example 345]", 2.47],
  ["CCc1c(F)ccc2cc(O)cc(-c3ncc4c(N5CCC[C@]6(C5)C[C@H](O)C6)nc(OC[C@@]56CCCN5C[C@H](F)C6)nc4c3F)c12 (single isomer, unassigned) [Example 323]", 1.34],
  ["CCc1c(F)ccc2cc(O)cc(-c3ncc4c(N5CCOC[C@@]6(C5)CC6(F)F)nc(OC[C@@]56CCCN5C[C@H](F)C6)nc4c3F)c12 [Example 498]", 2.23],
  ["O=S1(=O)NCC2(CCCN(c3nc(OC[C@@]45CCCN4C[C@H](F)C5)nc4c(F)c(-c5cc(O)cc6ccc(F)c(Br)c56)ncc34)C2)N1 (stereo partly drawn) [Example 411]", 1.96],
  ["CCc1c(F)ccc2cc(O)cc(-c3ncc4c(N5CC6CC(O)C(C6)C5)nc(OC[C@@]56CCCN5C[C@H](F)C6)nc4c3F)c12 (stereo partly drawn) [Example 82]", 2.03],
  ["CCc1c(F)ccc2cc(O)cc(-c3ncc4c(N5CCC[C@]6(C5)C[C@@H](O)C6)nc(OC[C@@]56CCCN5C[C@H](F)C6)nc4c3F)c12 (single isomer, unassigned) [Example 324]", 1.79],
  ["CCc1c(F)ccc2cc(O)cc(-c3ncc4c(N5CCN6C(=O)NCC6C5)nc(OC[C@@]56CCCN5C[C@H](F)C6)nc4c3F)c12 (stereo partly drawn) [Example 380]", 3.51],
  ["CCc1c(F)ccc2cc(O)cc(-c3ncc4c(NC5CCS(=O)(=O)C5)nc(OC[C@@]56CCCN5C[C@H](F)C6)nc4c3F)c12 (stereo partly drawn) [Example 349]", 3.35],
  ["C[C@@]1(O)CCCN(c2nc(OC[C@@]34CCCN3C[C@H](F)C4)nc3c(F)c(-c4cc(O)cc5ccc(F)c(Cl)c45)ncc23)C1 [Example 418]", 1.78],
  ["CCc1c(F)ccc2cc(O)cc(-c3ncc4c(N5CCCC6(CNS(=O)(=O)N6)C5)nc(OCC5(CN(C)C)CC5)nc4c3F)c12 (stereo not drawn) [Example 364]", 2.81]
]}

---

Target: KRas G12V (Homo sapiens, UniProt P01116, G12V);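 also: KRas binding measured by TR-FRET displacement at room temperature, IC50 fitted from percent of control values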
Sequence (P01116 1-169 isoform P01116-2 G12V): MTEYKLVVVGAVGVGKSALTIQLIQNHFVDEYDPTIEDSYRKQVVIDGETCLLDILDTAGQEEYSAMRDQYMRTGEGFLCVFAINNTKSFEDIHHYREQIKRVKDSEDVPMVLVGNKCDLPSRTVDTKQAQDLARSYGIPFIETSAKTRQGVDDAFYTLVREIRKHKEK
Test: biochemical
pIC50: −log10 of the molar value.
Parameter: pIC50. Scope: all listed entries.
Endpoint: pIC50

{"columns": ["Compound", "Qualifying sign", "Measurement"],
 "data": [
  ["CCc1c(F)ccc2cc(O)cc(-c3ncc4c(NC5CN(C(N)=O)C5)nc(OC[C@@]56CCCN5C[C@H](F)C6)nc4c3F)c12 [Example 310]", "≥", 8.70],
  ["CCc1c(F)ccc2cc(O)cc(-c3ncc4c(N5C[C@H](O)C[C@@H](F)C5)nc(OC[C@@]56CCCN5C[C@H](F)C6)nc4c3F)c12 [Example 178]", "=", 8.15],
  ["CCc1c(F)ccc2cc(O)cc(-c3ncc4c(N5CCC6C(=O)NC(=O)C6C5)nc(OC[C@@]56CCCN5C[C@H](F)C6)nc4c3F)c12 (stereo partly shown) [Example 487]", "=", 8.30],
  ["N#Cc1cccc2cccc(-c3ncc4c(N5CCCC6(CC(=O)N6)C5)nc(OCC56CCCN5CCC6)nc4c3F)c12 (stereo not shown) [Example 451]", "=", 5.54],
  ["CN(C)C(=O)n1cc2c(n1)CCCN(c1nc(OCC34CCCN3CCC4)nc3c(F)c(-c4cccc5cccc(F)c45)ncc13)C2 [Example 274]", "=", 6.06],
  ["Fc1c(-c2cccc3cccc(F)c23)ncc2c(Nc3cnc4cnccn34)nc(OCC34CCCN3CCC4)nc12 [Example 34]", "=", 4.83],
  ["OCC1CN(c2nc(OCC34CCCN3CCC4)nc3c(F)c(-c4cccc5cccc(F)c45)ncc23)CCCO1 (stereo not shown) [Example 269]", "=", 6.00]
]}

---

Tested on: pERK in A549 cells
Assay: Inhibition of KRas phosphorylation of ERK (Cisbio HTRF pERK assay)
Details: Homo sapiens, A549, read-out: Inhibition (HTRF IC50) of KRas-mediated Phosphorylation of ERK, A549
pIC50: −log10 of the molar value.
Endpoint: pIC50

{"columns": ["Compound", "Endpoint", "Measurement"],
 "data": [
  ["CCc1c(F)ccc2cc(O)cc(-c3ncc4c(N5CCC[C@@](C)(O)C5)nc(OCC5(CN6CCN(C)CC6)CC5)nc4c3F)c12 [Example 336]", "pIC50", 7.12],
  ["C#Cc1c(F)ccc2cc(O)cc(-c3ncc4c(N5C[C@@H]6C[C@H](C5)[C@H](O)C6)nc(OC[C@@]56CCCN5C[C@H](F)C6)nc4c3F)c12 [Example 388]", "pIC50", 7.74],
  ["C#Cc1c(F)ccc2cc(O)cc(-c3ncc4c(N5CCCn6nc(N)cc6C5)nc(OC[C@@]56CCCN5C[C@H](F)C6)nc4c3F)c12 [Example 394]", "pIC50", 6.25],
  ["CCc1c(F)ccc2cc(O)cc(-c3ncc4c(N5CCC[C@@](C)(O)C5)nc(OC[C@]56CCCN5[C@@H](COC(=O)N(C)C)CC6)nc4c3F)c12 [Example 362]", "pIC50", 6.20],
  ["CN(C)C(=O)c1cc2n(n1)CCCN(c1nc(OC[C@@]34CCCN3C[C@H](F)C4)nc3c(F)c(-c4cc(O)cc5ccc(F)c(Br)c45)ncc13)C2 [Example 412]", "pIC50", 6.62],
  ["CCc1c(F)ccc2cc(O)cc(-c3ncc4c(N5CCCCCC(S(C)(=O)=O)C5)nc(OC[C@@]56CCCN5C[C@H](F)C6)nc4c3F)c12 (stereo partly drawn) [Example 309]", "pIC50", 6.95],
  ["CCc1c(F)ccc2cc(O)cc(-c3ncc4c(N5CCCSCC5)nc(OC[C@@]56CCCN5C[C@H](F)C6)nc4c3F)c12 [Example 342]", "pIC50", 6.78],
  ["CCc1c(F)ccc2cc(O)cc(-c3ncc4c(N5CCC[C@@](C)(O)C5)nc(OC[C@@]56CCCN5[C@H](COC(=O)N5CCOCC5)CC6)nc4c3F)c12 [Example 511]", "pIC50", 7.64],
  ["CN(C)CC1(COc2nc(N3CCCC4(CNS(=O)(=O)N4)C3)c3cnc(-c4cc(O)cc5ccc(F)c(Cl)c45)c(F)c3n2)CC1 (stereo not drawn) [Example 428]", "pIC50", 6.74],
  ["CCc1c(F)ccc2cc(O)cc(-c3ncc4c(N5CCC[C@@](C)(O)C5)nc(OC[C@@]56CCCN5[C@H](COC(=O)N(C)C)CC6)nc4c3F)c12 [Example 314]", "pIC50", 7.72],
  ["CCc1c(F)ccc2cc(O)cc(-c3ncc4c(N5CCC[C@@H](O)C5)nc(OC[C@@]56CCCN5C[C@H](F)C6)nc4c3F)c12 [Example 193]", "pIC50", 7.36],
  ["O=S1(=O)NC[C@]2(CCCN(c3nc(OC[C@@]45CCCN4C[C@H](F)C5)nc4c(F)c(-c5cc(O)cc6ccc(F)c(Cl)c56)ncc34)C2)N1 [Example 515]", "pIC50", 7.44]
]}

---

Target: KRas G12R (Homo sapiens, UniProt P01116, G12R);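 also: TR-FRET displacement assay of compound binding to KRas, read after one hour at room temperature, potency from a four-parameter fit of percent-of-control values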
Sequence (P01116 1-169 isoform P01116-2 G12R): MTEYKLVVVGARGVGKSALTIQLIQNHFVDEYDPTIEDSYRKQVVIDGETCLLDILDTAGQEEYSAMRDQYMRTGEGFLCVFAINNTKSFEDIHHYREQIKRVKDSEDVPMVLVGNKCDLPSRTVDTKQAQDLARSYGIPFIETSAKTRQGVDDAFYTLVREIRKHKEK
Experiment: biochemical
Endpoint: IC50 (nM)

{"columns": ["Compound", "Endpoint", "Qualifying sign", "Measurement"],
 "data": [
  ["CCc1c(F)ccc2cc(O)cc(-c3ncc4c(N(C)Cc5cn[nH]c5)nc(OC[C@@]56CCCN5C[C@H](F)C6)nc4c3F)c12 [Example 163]", "IC50", "=", 17],
  ["CCc1c(F)ccc2cc(O)cc(-c3ncc4c(NCc5cc(C(N)=O)nn5C)nc(OC[C@@]56CCCN5C[C@H](F)C6)nc4c3F)c12 [Example 385]", "IC50", "≤", 2],
  ["CCc1c(F)ccc2cc(O)cc(-c3ncc4c(N5CCCC6(CCC6O)C5)nc(OC[C@@]56CCCN5C[C@H](F)C6)nc4c3F)c12 (stereo partly shown) [Example 351]", "IC50", "=", 11],
  ["CCc1c(F)ccc2cc(O)cc(-c3ncc4c(N5CCC[C@@](C)(O)C5)nc(OC[C@]56CCCN5[C@H](CO)CC6)nc4c3F)c12 [Example 302]", "IC50", "≤", 2],
  ["O=C1NC2(CCCN(c3nc(OCC45CCCN4CCC5)nc4c(F)c(-c5cccc6cccc(F)c56)ncc34)C2)CO1 (stereo not shown) [Example 227]", "IC50", "=", 3060],
  ["C#Cc1c(F)ccc2cc(O)cc(-c3ncc4c(N5CCCC(O)C5)nc(OCCN(C)C)nc4c3F)c12 (stereo not shown) [Example 387]", "IC50", "=", 125],
  ["CCc1c(F)ccc2cc(O)cc(-c3ncc4c(NCc5ccc(=O)n(C)c5)nc(OC[C@@]56CCCN5C[C@H](F)C6)nc4c3F)c12 [Example 199]", "IC50", "≤", 2],
  ["CCc1c(F)ccc2cc(O)cc(-c3ncc4c(N5C[C@@H]6C[C@H](C5)[C@H](O)C6)nc(OCC5(CN(C)C)CC5)nc4c3F)c12 [Example 360]", "IC50", "≤", 2],
  ["CCc1c(F)ccc2cc(O)cc(-c3ncc4c(N5CCCC(N6CCCS6(=O)=O)C5)nc(OC[C@@]56CCCN5C[C@H](F)C6)nc4c3F)c12 (stereo partly shown) [Example 348]", "IC50", "≤", 2],
  ["Cc1cc2[nH]ncc2c(-c2ncc3c(N4CCCC5(CNC(=O)C5)C4)nc(OCC45CCCN4CCC5)nc3c2F)c1C (stereo not shown) [Example 26]", "IC50", "=", 2320],
  ["CCc1c(F)ccc2cc(O)cc(-c3ncc4c(N5CCCC6(CSC6)C5)nc(OC[C@@]56CCCN5C[C@H](F)C6)nc4c3F)c12 [Example 365]", "IC50", "≤", 2],
  ["OCC1COCCN(c2nc(OCC34CCCN3CCC4)nc3c(F)c(-c4cc(O)cc5ccc(F)c(F)c45)ncc23)C1 (stereo not shown) [Example 457]", "IC50", "=", 10],
  ["CCc1c(F)ccc2cc(O)cc(-c3ncc4c(NCCC5CCNC5=O)nc(OC[C@@]56CCCN5C[C@H](F)C6)nc4c3F)c12 (stereo partly shown) [Example 375]", "IC50", "=", 9]
]}

# credit: patent US12398154B2
